# credit: patent US8975398B2

Measured IC50 by item
test system: PC3 cells; experiment: NAMPT Cell Proliferation Assay (Cell Titer Glo; also performed in the presence of 0.3 mM nicotinamide mononucleotide); type: cell-based; conditions: Homo sapiens, PC-3, 120 h, 5 days incubation, cell viability by Cell Titer Glo
Write the number in µM without appending the unit.

(Q) Find the recorded IC50 belonging to CC(C)(C)CC(=O)N1CCC(n2cc(NC(=O)C3CN(c4cccnn4)C3)cn2)CC1 [Example 970] and report it.
(A) 0.0285

----------
Molecular target: NAMPT (human, recombinant, C-terminally His-tagged) (Homo sapiens, UniProt P43490)
Sequence (P43490 whole entry): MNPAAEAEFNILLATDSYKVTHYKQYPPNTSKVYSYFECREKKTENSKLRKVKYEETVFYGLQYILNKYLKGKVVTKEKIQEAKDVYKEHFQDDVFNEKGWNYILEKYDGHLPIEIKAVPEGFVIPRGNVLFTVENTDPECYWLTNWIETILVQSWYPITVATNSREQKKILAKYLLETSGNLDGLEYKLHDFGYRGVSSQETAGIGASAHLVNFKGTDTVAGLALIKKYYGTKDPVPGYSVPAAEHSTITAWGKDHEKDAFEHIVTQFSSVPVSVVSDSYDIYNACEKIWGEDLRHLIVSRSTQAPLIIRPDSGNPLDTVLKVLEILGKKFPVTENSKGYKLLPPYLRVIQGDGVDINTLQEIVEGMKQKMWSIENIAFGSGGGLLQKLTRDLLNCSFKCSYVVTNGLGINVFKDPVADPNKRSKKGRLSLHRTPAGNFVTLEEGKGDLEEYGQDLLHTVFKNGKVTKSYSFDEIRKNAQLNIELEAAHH
Test: Time-Resolved Fluorescence Resonance Energy Transfer (TR-FRET) Binding Assay of NAMPT
Settings: 6.8 nM NAMPT, 200 nM probe, equilibrated 3 hours, absence of substrates
Experimental: Determination of the utility of compounds having Formula (I) as binders to and inhibitors of NAMPT was performed using Time-Resolved Fluorescence Resonance Energy Transfer (TR-FRET) binding assays. Time-Resolved Fluorescence Resonance Energy Transfer (TR-FRET) Binding Assay of NAMPT […]
property: IC50 (nM)
Write the number in nM without appending the unit.

>>> value_measured("CC(C)Cn1cc(-c2ccc(C(=O)NC3CN(c4cccnn4)C3)o2)cn1 [Example 309]")
4150

(Q) Find the recorded IC50 belonging to CC(=O)N[C@@H](CC(C)C)C(=O)N1CCC(c2ccc(NC(=O)C3CN(c4cccnn4)C3)cc2)CC1 [Example 385] and report it.
(A) 55.1

(Q) Find the recorded IC50 belonging to O=C(Nc1ccc(OC2CN(C(=O)c3ccc(F)cc3)C2)cc1)C1CN(c2ccnnc2)C1 [Example 199] and report it.
(A) 33.7

(Q) Find the recorded IC50 belonging to O=C(Nc1ccc(OC2CCN(C(=O)CN3CCOCC3)CC2)cc1)C1CN(c2cccnc2)C1 [Example 60] and report it.
(A) 150

----------
Measured IC50 by item
target: NAMPT (human, recombinant, C-terminally His-tagged) (Homo sapiens); assay: Time-Resolved Fluorescence Resonance Energy Transfer (TR-FRET) Binding Assay of NAMPT; conditions: 6.8 nM NAMPT, 200 nM probe, equilibrated 3 hours, absence of substrates
Write the number in µM without appending the unit.

>>> value_measured("Cc1ncccc1N1CC(C(=O)Nc2ccc(C3CCN(C(=O)c4ccc(C(F)(F)F)cc4)CC3)cc2)C1")
1.07
>>> value_measured("Cc1ncccc1N1CC(C(=O)Nc2ccc(C3CCN(C(=O)c4ccc(Cl)cc4)CC3)cc2)C1")
0.396
>>> value_measured("O=C(Nc1ccc(C2CCN(C(=O)CC(F)(F)F)CC2)cc1)C1CN(c2cccnc2)C1")
0.00794

Please examine the following record next.
(Q) Please state recorded IC50 (tested on NAMPT (human, recombinant, C-terminally His-tagged) (Homo sapiens)) of CC[C@H](C)C(=O)N1CCC(Oc2ccc(NC(=O)C3CN(c4cccnc4)C3)cc2)CC1
(A) 0.0102

----------
Measured pIC50 by item
Biological target: NAMPT (human, recombinant, C-terminally His-tagged) (Homo sapiens, UniProt P43490)
Test: Time-Resolved Fluorescence Resonance Energy Transfer (TR-FRET) Binding Assay of NAMPT
Conditions: 6.8 nM NAMPT, 200 nM probe, equilibrated 3 hours, absence of substrates
Procedure: Determination of the utility of compounds having Formula (I) as binders to and inhibitors of NAMPT was performed using Time-Resolved Fluorescence Resonance Energy Transfer (TR-FRET) binding assays. Time-Resolved Fluorescence Resonance Energy Transfer (TR-FRET) Binding Assay of NAMPT […]
Please note pIC50 is a logarithmic value: minus log10 of concentration in mol/L. Answer with that number alone.

>>> value_measured("O=C(Nc1ccc(OC2CCN(C(=O)c3cscn3)CC2)cc1)C1CN(c2ccnnc2)C1 [Example 272]")
6.78
>>> value_measured("COCCOCC(=O)N1CCC(c2ccc(NC(=O)C3CN(c4cccnc4)C3)cc2)CC1 [Example 123]")
7.18
>>> value_measured("CC[C@H](C)C(=O)N1CCC(c2ccc(NC(=O)C3CN(c4cccnc4)C3)cc2)CC1 [Example 22]")
7.93
>>> value_measured("CC(C)(O)C(=O)N1CC(Oc2ccc(NC(=O)C3CN(c4ccnnc4)C3)cc2)C1 [Example 207]")
6.85
>>> value_measured("CCOCCC(=O)N1CCC(c2ccc(NC(=O)C3CN(c4cccnc4)C3)cc2)CC1 [Example 115]")
7.32

(Q) Find the recorded pIC50 belonging to Cc1cccc(C(=O)N2CCC(c3ccc(NC(=O)C4CN(c5cccnn5)C4)cc3)CC2)c1 [Example 341] and report it.
(A) 7.45

(Q) Find the recorded pIC50 belonging to CC(C)(O)C(=O)N1CCC(c2ccc(NC(=O)C3CN(c4cccnc4C#N)C3)cc2)CC1 [Example 2] and report it.
(A) 7.65

(Q) Find the recorded pIC50 belonging to CCC(C)(C)C(=O)N1CCC(Oc2ccc(NC(=O)C3CN(c4ccnnc4)C3)cc2)CC1 [Example 300] and report it.
(A) 7.19
